test details: Biodistribution of 177Lu-labeled αMSH analogues in mice bearing B16F10 mouse melanoma
Type: in vivo, C57BL/6J mice
run conditions: mouse, adrenal glands, iv, total radioactivity; 120 h p.i., C57BL/6J mice, B16F10 melanoma; read-out: Biodistribution, Adrenal glands
property measured: tissue uptake at 120 h (%ID/g)

CCCC[C@H](NC(=O)CN1CCC(NC(=O)[C@H](CCCCNC(=O)CN2CCN(CC(=O)O)CCN(CC(=O)O)CCN(CC(=O)O)CC2)NC(=O)[C@H](CCC(=O)O)NC(=O)CCCc2ccc(I)cc2)CC1)C(=O)N[C@H]1CC(=O)NCCCC[C@@H](C(N)=O)N(C)C(=O)[C@H](Cc2c[nH]c3ccccc23)NC(=O)[C@H](CCCNC(=N)N)N(C)C(=O)[C@@H](Cc2ccccc2)NC(=O)[C@H](Cc2c[nH]cn2)NC1=O [^177Lu-labeled CCZ01118, metal not drawn] = 0.18
